assay: phenotypic screen on post-Golgi transport, primary screen (AID 739); conditions: post-Golgi transport phenotypic cell assay; at 10 µM; hits give high values;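 also: yeast cells grown in 1536-well plates; yeast grown about 18 h at 30C before absorbance read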
The campaign covered roughly 98,000 compounds. About 880 (0.9%) were called active. Shown is part of a subset that was picked to be rich in actives.
measure_name: inhibition

CC(Oc1ccc2ccccc2c1)C(=O)NNC(=S)NC(=O)c1ccco1 (centres undefined): 43% (active)
CC(C)NC(=O)C(=O)NCCN1CCN(S(=O)(=O)c2ccc(Cl)cc2)CC1: 1.12% (inactive)
COC(=O)Cc1cc(=O)oc2c(C)c(O)ccc12: -6.64% (inactive)
COc1ccccc1CSc1nc2ccccc2[nH]1: 1.93% (inactive)

Provide inhibition for all items below, preserving their order.
1. CC1CCN(CC(=O)c2c[nH]c3ccccc23)CC1
2. COc1cccc(NC(=O)Cc2ccc(C)cc2)c1

Response given:
0% (inactive)
24.4% (inactive)

Provide inhibition for all items below, preserving their order.
1. Nc1c(-c2ccc(F)cc2)cnc2ncnn12
2. O=[N+]([O-])c1ccc(Oc2ccc(F)cc2Br)c2ccncc12

Response given:
1: 15.1% (inactive); 2: 54.4% (active)

Provide inhibition for all items below, preserving their order.
1. COc1ccc2c(c1)CCc1c(C(=O)N3CCCC3)noc1-2
2. COC(=O)C1C(=O)NCC1c1ccc(C)cc1 (centres undefined)
3. COc1cc(OC)c(/C=N/NC(=O)c2ccc([N+](=O)[O-])cc2)cc1Br
4. CC1(C)Cc2c(sc3nc(SCC(=O)NCc4ccccc4)n(-c4ccccc4)c(=O)c23)CS1
5. CC(=O)c1cc(NC(=O)c2ccccc2)c(=O)oc1/C=C/N(C)C
6. COC(=O)c1ccc(CSc2nncn2C)cc1
7. CCOc1ccccc1NC(=O)Nc1cc(OC)ccc1OC
8. COc1ccc(-c2ccc(Nc3ccc(S(=O)(=O)N4CCCC4)cc3)nn2)cc1OC

Response given:
1: -1.12% (inactive); 2: -3.77% (inactive); 3: -4.41% (inactive); 4: 8.61% (inactive); 5: -1.13% (inactive); 6: 1.45% (inactive); 7: 1.32% (inactive); 8: 1.55% (inactive)

Provide inhibition for all items below, preserving their order.
1. O=C(OCc1cn(-c2ccc(Cl)c(Cl)c2)nn1)c1ccccc1Cl
2. CCCCN=C1N/C(=C\c2ccco2)C(=O)N1c1ccccc1

Response given:
1: -1.94% (inactive); 2: 1.56% (inactive)

Provide inhibition for all items below, preserving their order.
1. Cc1ccn2cc(-c3nonc3C)cc2c1
2. CCOc1ccccc1Nc1nnc(SCc2ccc(C(=O)OC)o2)s1
3. CCCc1ccc(OCC(=O)NNC(=S)NC(=O)c2ccco2)cc1
4. COc1ccc2c(c1)CCc1c(C(=O)N3CCc4ccccc4C3)noc1-2
5. COC(=O)C(NC(=O)c1ccc(OC)cc1)(Nc1ncc(S(=O)(=O)c2ccc([N+](=O)[O-])cc2)s1)C(F)(F)F (centres undefined)
6. COC(=O)c1ccc(CSc2nnc(NC(C)C)s2)cc1

Response given:
1: 37.3% (active); 2: -9.05% (inactive); 3: 27.3% (inactive); 4: 40.4% (active); 5: 6.99% (inactive); 6: 36.2% (active)
